Provide the recorded Degree of resistance (D.R.) for the entries that follow.
system: CEM/ADR5000 cells; assay: Resazurin reduction assay (RRA), cytotoxicity; assay type: cell-based, human; conditions: ratio of IC50 CEM/ADR5000 vs CCRF-CEM

Example molecules with recorded Degree of resistance (D.R.):
[[record]]
molecule = "C[C@@H](O)C1CCC2C3CC=C4C[C@@H](O[C@@H]5OC[C@H](O)[C@H](O)[C@H]5O[C@@H]5O[C@H](CO)[C@@H](O)[C@H](O)[C@H]5O)CC[C@]4(C)C3CC[C@@]21C (some centres unmarked)"
testsystem = "CEM/ADR5000 cells"
reportedresult = "> 3.13"

[[record]]
molecule = "O=c1ccc2nccc3c4ccccc4n1c23"
testsystem = "CEM/ADR5000 cells"
reportedresult = "> 2.26"

[[record]]
molecule = "COc1cc([C@H]2Oc3cc(-c4cc(=O)c5c(O)cc(O)cc5o4)ccc3O[C@@H]2CO)ccc1O"
testsystem = "CEM/ADR5000 cells"
reportedresult = 0.72

[[record]]
molecule = "C[C@@H](O)C1CCC2C3CC=C4C[C@@H](O[C@@H]5OC[C@H](O)[C@H](O)[C@H]5O)CC[C@]4(C)C3CC[C@@]21C (some centres unmarked)"
testsystem = "CEM/ADR5000 cells"
reportedresult = 2.60

[[record]]
molecule = "CC(C)(O)[C@@H](O)Cc1cn([C@@H]2O[C@H](CO)[C@@H](O)[C@H](O)[C@H]2O)c2ccccc12"
testsystem = "CEM/ADR5000 cells"
reportedresult = "> 4.91"

[[record]]
molecule = "COc1cccc2c1C(=O)c1c(O)c3c(c(O)c1C2=O)C[C@@](O)(C(=O)CO)C[C@@H]3O[C@H]1C[C@H](N)[C@H](O)[C@H](C)O1 [Doxorubicin, reference compound]"
testsystem = "CEM/ADR5000 cells"
reportedresult = "6,683.00"

[[record]]
molecule = "CC(C)=CC(=O)c1c[nH]c2ccccc12"
testsystem = "CEM/ADR5000 cells"
reportedresult = 1.68


Switching to the query record.
q: Which Degree of resistance (D.R.) value is on record for COc1cc([C@H]2Oc3c(OC)cc4ccc(=O)oc4c3O[C@@H]2CO)cc(OC)c1O ?
a: > 4.31
